Molecular target: human ERK-2 (Mitogen Activated Kinase 1) (Homo sapiens (Human))
Assay: ERK-2 Enzymatic Assay
Settings: human ERK-2 enzyme 5 nM, 25 μM ATP, S/T17 peptide substrate; isomer = configuration of CR2R3
Procedure: Compounds were tested in an enzymatic assay using human ERK-2 (Mitogen Activated Kinase 1), recombinantly expressed as an n-terminal 6-His fusion protein in E. coli and corresponding to aa 8-360. […] Test compounds were diluted in DMSO in 3-fold serial dilutions at 100× final concentrations. […] Percent of control was plotted against compound concentration, and IC50 values were determined using a four-parameter fit.
recorded-metric: IC50 (nM)

1: Cn1nccc1Nc1cc(-c2cc3n4c(nnc4c2)[C@H](c2ccccc2)CN3)ccn1 (single isomer, unassigned) [(R) I-4]
2: CCCC1COc2cc(-c3ccnc(Nc4ccnn4C)n3)cc3nnc1n23 (single isomer, unassigned) [(S) I-101]
Among 1 and 2 , which shows a numerically higher IC50 result? Kindly give the label for the entry you pick.
1
(1: 43.1 nM, 2: 19.5 nM)

* * *

biological target: human ERK-2 (Mitogen Activated Kinase 1) (Homo sapiens (Human), UniProt P28482); experiment: ERK-2 Enzymatic Assay; conditions: human ERK-2 enzyme 5 nM, 25 μM ATP, S/T17 peptide substrate; isomer = configuration of CR2R3
Sequence (P28482 8-360): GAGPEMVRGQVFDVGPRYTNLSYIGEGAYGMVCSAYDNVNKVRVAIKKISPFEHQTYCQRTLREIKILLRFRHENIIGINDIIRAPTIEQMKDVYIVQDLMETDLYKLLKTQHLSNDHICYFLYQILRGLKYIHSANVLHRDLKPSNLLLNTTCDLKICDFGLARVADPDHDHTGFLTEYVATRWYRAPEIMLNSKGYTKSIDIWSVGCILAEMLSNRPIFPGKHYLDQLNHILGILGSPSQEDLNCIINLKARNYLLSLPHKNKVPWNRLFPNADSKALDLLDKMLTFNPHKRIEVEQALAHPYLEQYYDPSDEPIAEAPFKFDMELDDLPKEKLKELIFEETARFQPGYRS
recorded-metric: IC50 (nM)

>>> recorded_measurement("CC(C)C[C@H]1NC(=O)N(C)c2cc(-c3ccnc(Nc4ccnn4C)c3)cc3nnc1n23")
4.28
>>> recorded_measurement("CC(C)C[C@@H]1CCOc2cc(-c3ccnc(Nc4ccnn4C)n3)cc3nnc1n23 [(R) I-107]")
1.85
>>> recorded_measurement("Cn1nccc1Nc1cc(-c2cc3n4c(nnc4c2)[C@H](Cc2ccc(Cl)cc2)CO3)ccn1 [(S) I-48]")
12.3
>>> recorded_measurement("Cn1nccc1Nc1nccc(-c2cc3n4c(nnc4c2)[C@H](Cc2ccc(Cl)cc2)CN3)n1 [(R) I-5]")
0.408

P: Cn1nccc1Nc1nccc(-c2cc3n4c(nnc4c2)[C@H](Cc2ccc(Cl)cc2)CCO3)n1 [(R) I-36]
Q: CN1C(=O)N(Cc2ccc(Cl)cc2)c2nnc3cc(-c4ccnc(Nc5ccnn5C)n4)cc1n23
R: CC(C)C[C@@H]1c2nnc3cc(-c4ccnc(Nc5ccnn5C)n4)cc(n23)NC(=O)N1C
S: CC(C)C[C@@H]1CNc2cc(-c3ccnc(Nc4ccnn4C)n3)cc3nnc1n23 [(R) I-10]
T: Cn1nccc1Nc1cc(-c2cc3n4c(nnc4c2)C(Cc2ccc(Cl)cc2)CO3)ccn1 (single isomer, unassigned) [(S) I-55]
Returns the items ordered by IC50, from maximum to minimum. Response format: the labels, sorted as the prompt asks.
T, S, R, P, Q

* * *

target: human ERK-2 (Mitogen Activated Kinase 1) (Homo sapiens (Human)); assay: ERK-2 Enzymatic Assay; details: human ERK-2 enzyme 5 nM, 25 μM ATP, S/T17 peptide substrate; isomer = configuration of CR2R3
recorded-metric: IC50 (nM)

>>> recorded_measurement("COc1ccc(C[C@H]2COc3cc(-c4ccnc(Nc5ccnn5C)n4)cc4nnc2n34)cc1 [(R) I-50]")
0.02

a: CN1C(=O)N(Cc2ccccc2)c2nnc3cc(-c4ccnc(Nc5ccnn5C)n4)cc1n23 [Compound I-28]
b: COc1ccc(C[C@@H]2CNc3cc(-c4ccnc(Nc5ccnn5C)n4)cc4nnc2n34)cc1 [(R) I-11]
c: Cn1nccc1Nc1cc(-c2cc3n4c(nnc4c2)[C@@H](Cc2ccc(F)c(F)c2)CO3)ccn1 [(R) I-54]
d: CCC[C@@H]1CCOc2cc(-c3ccnc(Nc4ccnn4C)n3)cc3nnc1n23 [(R) I-104]
Returns the items ordered by IC50, from maximum to minimum. Response format: the labels, sorted as the prompt asks.
d, b, c, a

* * *

molecular target: human ERK-2 (Mitogen Activated Kinase 1) (Homo sapiens (Human), UniProt P28482); test: ERK-2 Enzymatic Assay; conditions: human ERK-2 enzyme 5 nM, 25 μM ATP, S/T17 peptide substrate; isomer = configuration of CR2R3
pIC50: −log10 of the molar value.
recorded-metric: pIC50

>>> recorded_measurement("Clc1cnn(C[C@@H]2CCOc3cc(-c4ccnc(NC5CCOCC5)n4)cc4nnc2n34)c1 [(S) I-110]")
9.85
>>> recorded_measurement("COc1ccc(C[C@@H]2COc3cc(-c4ccnc(Nc5ccnn5C)n4)cc4nnc2n34)cc1F [(S) I-46]")
8.61
>>> recorded_measurement("Cn1nccc1Nc1nccc(-c2cc3n4c(nnc4c2)[C@H](COCc2ccccc2)CCO3)n1 [(R) I-29]")
9.96
>>> recorded_measurement("CN1C[C@@H](Cc2ccc(F)cc2)c2nnc3cc(-c4ccnc(Nc5ccnn5C)n4)cc1n23 [(R) I-31]")
8.87

I: CC(C)C[C@H]1CC(=O)N(C)c2cc(-c3ccnc(Nc4ccnn4C)c3)cc3nnc1n23 [(S) I-75]
II: CN1C(=O)N(Cc2cc(F)cc(F)c2)c2nnc3cc(-c4ccnc(Nc5ccnn5C)n4)cc1n23 [Compound I-99]
III: COc1ccc(C[C@H]2CC(=O)N(C)c3cc(-c4ccnc(Nc5ccnn5C)n4)cc4nnc2n34)c(F)c1 [(S) I-85]
IV: Cn1nccc1Nc1nccc(-c2cc3n4c(nnc4c2)[C@@H](Cc2ccccc2)CO3)n1 [(R) I-15]
V: COc1ccc(C[C@H]2CC(=O)N(C)c3cc(-c4ccnc(Nc5ccnn5C)n4)cc4nnc2n34)cc1 [(S) I-62]
Returns the items ordered by pIC50, from maximum to minimum. Response format: the labels, sorted as the prompt asks.
IV, II, III, V, I
(IV: 10.70, II: 9.95, III: 7.59, V: 7.36, I: 6.14)

* * *

Molecular target: human ERK-2 (Mitogen Activated Kinase 1) (Homo sapiens (Human))
Assay: ERK-2 Enzymatic Assay
Details: human ERK-2 enzyme 5 nM, 25 μM ATP, S/T17 peptide substrate; isomer = configuration of CR2R3
Method: Compounds were tested in an enzymatic assay using human ERK-2 (Mitogen Activated Kinase 1), recombinantly expressed as an n-terminal 6-His fusion protein in E. coli and corresponding to aa 8-360. […] Test compounds were diluted in DMSO in 3-fold serial dilutions at 100× final concentrations. […] Percent of control was plotted against compound concentration, and IC50 values were determined using a four-parameter fit.
recorded-metric: IC50 (nM)

// known answers, use as guide
>>> recorded_measurement("Cn1nccc1Nc1cc(-c2cc3n4c(nnc4c2)[C@H](Cn2cc(C(F)(F)F)cn2)CCO3)ccn1 [(S) I-89]")
2.31
>>> recorded_measurement("Cn1nccc1Nc1nccc(-c2cc3n4c(nnc4c2)C(Oc2ccc(F)cc2)CCO3)n1 [(R) I-108]")
2.95
>>> recorded_measurement("CN1C(=O)C[C@H](CC(F)(F)F)c2nnc3cc(-c4ccnc(Nc5ccnn5C)n4)cc1n23 [(R) I-71]")
0.655
>>> recorded_measurement("CN1C(=O)C[C@H](Cc2ccc(Cl)cn2)c2nnc3cc(-c4ccnc(Nc5ccnn5C)n4)cc1n23 [(S) I-84]")
32.7
>>> recorded_measurement("CN1C(=O)CC(Cc2ccc(F)cc2)c2nnc3cc(-c4ccnc(Nc5ccnn5C)n4)cc1n23 (centres unmarked)")
17
>>> recorded_measurement("CC(C)C[C@@H]1CC(=O)N(C)c2cc(-c3ccnc(Nc4ccnn4C)c3)cc3nnc1n23 [(R) I-75]")
3.22
>>> recorded_measurement("Cn1nccc1Nc1cc(-c2cc3n4c(nnc4c2)C(Cc2ccccc2Cl)CCO3)ccn1 (single isomer, unassigned) [(R) I-30]")
2.55
>>> recorded_measurement("CC(C)C[C@@H]1c2nnc3cc(-c4ccnc(Nc5ccnn5C)n4)cc(n23)N(C)C(=O)N1C")
1.15

I: Cn1nccc1Nc1nccc(-c2cc3n4c(nnc4c2)[C@H](Oc2ccc(F)cc2)CCO3)n1 [(R) I-66]
II: CC(C)[C@@H]1CC(=O)N(C)c2cc(-c3ccnc(Nc4ccnn4C)c3)cc3nnc1n23 [(S) I-87]
III: COc1ccc(C[C@H]2CN(C)c3cc(-c4ccnc(Nc5ccnn5C)c4)cc4nnc2n34)cc1 [(S) I-18]
IV: CN1C(=O)C[C@H](C2CC2)c2nnc3cc(-c4ccnc(Nc5ccnn5C)n4)cc1n23 [(R) I-65]
Arrange the 4 compounds by rising IC50, starting with the smallest. Response format: the labels, sorted as the prompt asks.
IV, I, III, II
(IV: 0.66 nM, I: 2.95 nM, III: 55.8 nM, II: 1000 nM)

a: CCC[C@@H]1CCOc2cc(-c3ccnc(Nc4ccnn4C)c3)cc3nnc1n23 [(R) I-103]
b: Cn1nccc1Nc1cc(-c2cc3n4c(nnc4c2)[C@@H](Cc2ccccc2)CO3)ccn1 [(R) I-38]
Among a and b , which shows a numerically higher IC50 result? Kindly give the label for the entry you pick.
a

a: CCC[C@H]1CC(=O)N(C)c2cc(-c3ccnc(Nc4ccnn4C)n3)cc3nnc1n23 [(S) I-64]
b: Cn1nccc1Nc1cc(-c2cc3n4c(nnc4c2)[C@H](Cc2ccccc2)CN3)ccn1 [(R) I-7]
Input pair: a , b . Output: entry with lower IC50. Kindly give the label for the entry you pick.
a
(a: 0.149 nM, b: 0.707 nM)

P: Cn1nccc1Nc1nccc(-c2cc3n4c(nnc4c2)[C@@H](Cc2ccc(F)c(Cl)c2)CO3)n1 [(R) I-82]
Q: Cn1nccc1Nc1nccc(-c2cc3n4c(nnc4c2)[C@H](Cc2cccc(Cl)c2)CO3)n1 [(S) I-88]
Input pair: P , Q . Output: entry with lower IC50. Kindly give the label for the entry you pick.
P

A: CN1C(=O)N[C@H](CC2CC2)c2nnc3cc(-c4ccnc(Nc5ccnn5C)n4)cc1n23
B: Cn1nccc1Nc1nccc(-c2cc3n4c(nnc4c2)[C@H](Cc2ccc(F)c(Cl)c2)CO3)n1 [(S) I-82]
Input pair: A , B . Output: entry with lower IC50. Kindly give the label for the entry you pick.
A
(A: 2.34 nM, B: 12.4 nM)

Source listed as patent US9867833B2.
